# system: nsp12 (Severe acute respiratory syndrome coronavirus 2, UniProt P0DTD1)
measurement.kind: Kd (µM)

CC1(C)[C@@H](O)CC[C@]2(C)[C@H]3C(=O)C=C4[C@@H]5C[C@@](C)(C(=O)O)CC[C@]5(C)CC[C@@]4(C)[C@]3(C)CC[C@@H]12 = 416
